testedSystem: Kir3.1/Kir3.4 (Homo sapiens, UniProt P48544+P48549)
Sequence (P48549 whole entry): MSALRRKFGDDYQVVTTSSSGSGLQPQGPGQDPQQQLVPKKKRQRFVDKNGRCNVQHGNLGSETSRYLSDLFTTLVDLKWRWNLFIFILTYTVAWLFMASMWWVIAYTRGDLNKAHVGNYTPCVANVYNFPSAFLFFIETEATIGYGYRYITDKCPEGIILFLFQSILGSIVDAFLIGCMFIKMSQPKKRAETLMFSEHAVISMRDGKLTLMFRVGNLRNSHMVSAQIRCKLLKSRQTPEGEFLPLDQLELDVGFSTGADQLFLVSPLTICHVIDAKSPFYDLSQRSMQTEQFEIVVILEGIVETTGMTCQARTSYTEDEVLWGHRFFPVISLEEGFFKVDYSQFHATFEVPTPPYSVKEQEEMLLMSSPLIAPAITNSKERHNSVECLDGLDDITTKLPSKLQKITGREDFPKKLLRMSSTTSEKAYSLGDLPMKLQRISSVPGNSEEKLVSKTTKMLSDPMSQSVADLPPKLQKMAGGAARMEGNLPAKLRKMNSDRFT
Sequence (P48544 whole entry): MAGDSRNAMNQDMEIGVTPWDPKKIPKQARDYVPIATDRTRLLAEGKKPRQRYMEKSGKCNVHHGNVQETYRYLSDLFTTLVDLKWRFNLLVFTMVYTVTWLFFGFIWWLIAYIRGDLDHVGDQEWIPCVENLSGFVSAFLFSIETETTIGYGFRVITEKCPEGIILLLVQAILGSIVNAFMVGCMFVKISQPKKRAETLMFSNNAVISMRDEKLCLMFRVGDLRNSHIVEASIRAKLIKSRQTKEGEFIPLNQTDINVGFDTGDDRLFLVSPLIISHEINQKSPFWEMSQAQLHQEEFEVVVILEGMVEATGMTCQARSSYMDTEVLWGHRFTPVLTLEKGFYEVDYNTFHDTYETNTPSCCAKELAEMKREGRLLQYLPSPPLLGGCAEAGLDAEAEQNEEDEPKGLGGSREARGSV
methodSummary: IonWorks Quattro system: Quattro is controlled using IonWorks v2 software to perform the following steps:a. Add 3.5 ul cells plus 3.5 ul external buffer to wells of Quattro Patch Plateb. Circulate amphotericin B and internal buffer onto cellsc. Apply the following voltage protocol: Pulse 1: 15 mV for 300 milliseconds (ms), followed by Pulse 2: −120 mV for 400 ms, then Pulse 3: −15 mV for 400 ms, and finally Pulse 4: −120 mV to 40 mV over 500 ms (this is a voltage ramp).d. Measure magnitude of inward potassium current at time point between 1200-1220 ms from start of Pulse 1 (i.e. during the voltage ramp phase).e. Add 3.5 ul of diluted compounds (or DMSO) to wells and repeat steps c-d (final compound concentrations are 50 uM to 0.1 uM, for potent compounds 0.5 uM to 0.01 uM and each concentration is tested in quadruplicate—i.e. in 4 separate wells).f. The difference between current magnitude pre vs. post-compound gives a measure of GIRK1/4 inhibition.7. Data analysis:IC50 values are calculated by plotting the percentage of current inhibition (normalized to the DMSO-only control) as a function of compound concentration using standard data analysis software.
recordedMetric: pIC50
// field semantics: pIC50 = negative decimal log of concentration (mol/L)

Task: Which value of pIC50 has been reported for CS(=O)(=O)NCCOc1ncc(Cl)c2c1c(=O)cc(CO)n2-c1c(Cl)cccc1Cl in the records?
Result: 7.00

Task: Which value of pIC50 has been reported for O=c1cc(CO)n(-c2c(Cl)cccc2Cl)c2c(Cl)cnc(OCC(CO)CO)c12 in the records?
Result: 6.45
